Here the recorded solubility kinetic is given for each entry.
# TEST CONDITIONS: buffer; pH 7.4; 200.0 µM

Please review the following examples before continuing.
MOLECULE: COc1cc(NC(=O)COC(=O)CCc2nc3ccccc3c(=O)[nH]2)cc(OC)c1
solubility kinetic: 60.7 µg/mL

MOLECULE: CC(NC(=O)c1ccc(Br)o1)c1ccc(-n2ccnc2)cc1 (stereo unspecified)
solubility kinetic: > 54 µg/mL

MOLECULE: O=C(NC1CCOc2ccccc21)c1ccc(=O)[nH]c1 (stereo unspecified)
solubility kinetic: > 40.5 µg/mL

MOLECULE: CC(=O)c1c(C)[nH]c(C(=O)COC(=O)CCNS(=O)(=O)c2ccc(C)c(C)c2)c1C
solubility kinetic: 11 µg/mL

MOLECULE: Cc1cc(C)cc(OCC(=O)Nc2cnn(CCCC(=O)O)c2)c1
solubility kinetic: > 49.7 µg/mL

Ask: Suppose we examine the molecule Clc1cccc(CNc2nc(-c3cccnc3)nc3ccccc23)c1 ; what solubility kinetic value has been reported?
Result: 0.5 µg/mL

Ask: Suppose we examine the molecule CCN(CC)C(=S)SCC(=O)Nc1ncc2c(n1)CC(C)(C)CC2=O ; what solubility kinetic value has been reported?
Result: 2.1 µg/mL

Ask: Suppose we examine the molecule O=c1c2c([nH]c3ccccc13)CCCCC2 ; what solubility kinetic value has been reported?
Result: > 32 µg/mL

Ask: Suppose we examine the molecule CCc1nc(SCC(=O)O)c2c3c(sc2n1)COC(C)(C)C3 ; what solubility kinetic value has been reported?
Result: > 50.8 µg/mL

Ask: Suppose we examine the molecule CCC(C(=O)NC(CC(=O)O)c1ccc(Cl)cc1)c1ccccc1 (stereo unspecified) ; what solubility kinetic value has been reported?
Result: > 51.9 µg/mL

Ask: Suppose we examine the molecule COc1cccc(C(=O)NNC(=O)CCC(=O)O)c1 ; what solubility kinetic value has been reported?
Result: > 39.9 µg/mL

* * *

# TEST CONDITIONS: buffer; pH 7.4; 200.0 µM
Here the recorded solubility kinetic is given for each entry.
Report as a plain number; the unit µg/mL is understood.

COMPOUND: O=C(Nc1ccc(Cl)cc1C(=O)N1CCCCC1)c1ccco1
ENDPOINT: solubility kinetic
UNITS SYMBOL: µg/mL
DATA VALUE: 46.6
--
COMPOUND: N#Cc1ccc(S(=O)(=O)Nc2ccc3ccccc3n2)cc1
ENDPOINT: solubility kinetic
UNITS SYMBOL: µg/mL
DATA VALUE: 27
--
COMPOUND: C#Cc1ccc(CN2CCN(Cc3ccsc3)C(CCO)C2)cc1 (configuration not stated)
ENDPOINT: solubility kinetic
UNITS SYMBOL: µg/mL
DATA VALUE: 36.3

Ask: Suppose we examine the compound CC(C)(C)c1ccc(C(=O)Nc2cccnc2)cc1 ; what solubility kinetic value has been reported?
Result: 28

* * *

# TEST CONDITIONS: buffer; pH 7.4; 200.0 µM
ENDPOINT: solubility kinetic

Please review the following examples before continuing.
COMPOUND: O=C1CC(N2CCN(c3ccc(F)cc3)CC2)C(=O)N1c1ccccc1 (stereo unspecified)
ENDPOINT: solubility kinetic
DATA VALUE: 49.4 µg/mL
//
COMPOUND: CCCOC(=O)Nc1sc2c(c1C(N)=O)CCCC2
ENDPOINT: solubility kinetic
DATA VALUE: 1.3 µg/mL
//
COMPOUND: CSc1nc([O-])cc(=O)n1-c1ccc(F)cc1.[K+]
ENDPOINT: solubility kinetic
DATA VALUE: > 43.6 µg/mL
//
COMPOUND: COc1ccccc1S(=O)(=O)Nc1ccc2nc(C)sc2c1
ENDPOINT: solubility kinetic
DATA VALUE: 10.4 µg/mL
//
COMPOUND: COc1ccc(CCN2C(=S)N(c3ccccc3)C(=O)C2CC(=O)O)cc1OC (stereo unspecified)
ENDPOINT: solubility kinetic
DATA VALUE: > 62.2 µg/mL
//
COMPOUND: COc1cccc(CN2CCN(Cc3cccc(F)c3)CC2)c1.O=C(O)C(=O)O
ENDPOINT: solubility kinetic
DATA VALUE: 46.5 µg/mL

Ask: Suppose we examine the compound CCc1cc2ccccc2nc1SCC(=O)NC1CCCC1 ; what solubility kinetic value has been reported?
Result: 0.3 µg/mL
